# Tested on: K4 kissing-loop RNA reporter;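 note: bound reporter read as fluorescence of individual clusters on recovered sequencing chips by microscopy, with normalized cluster intensities fitted with a binding model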
# protocolSummary: apparent KD of K4 kissing-loop reporter; higher = weaker reporter binding
# conditionParameters: Eterna round: R107; input ligand: arginine 13.2 mM
Recorded apparent KD of K4 kissing-loop reporter, one value per entry.
Write it as a number; the unit nM goes unstated.

Reference set, count: 2
* AUACAUGUAAAUCUAUAUGUAUAAUGGAGCCGAGGACCGGUACGGCCGCCACUCGGAGUAAUCGGAGUGAUGUUCCGAAAUGUAC [KL-SSTryp-A sub13] | 119
* GUAUCGCUAGGAGGAUAUUUCGUUUUUCAUAGCAAUGGCUGUGCGGAGUGAUGUUCCGAUUUACCGGAAGAAGGCCUAGUGAUAC [FMN B 27] | 165

// below: apparent KD of K4 kissing-loop reporter requested for another sequence
[ask] // query apparent KD of K4 kissing-loop reporter value for entry GAUUUAGAGGCGGCCGCCACUAGUGAUGUUAGUGAUGUUUGAUAGGGAAUAUAUCUGCGAGUAGAUAGGACCGGGCCAGAUGGAG [eccvbmullin]
[reply] 128

---

# Tested on: MS2 coat protein
# protocolSummary: apparent KD of MS2 coat protein; designed switch direction (-1 OFF switch, 1 ON switch): 1; higher = weaker reporter binding
# conditionParameters: input ligand: microRNA oligo, concentration not stated
resultType: apparent KD of MS2 coat protein (nM)
Write it as a number; the unit nM goes unstated.

* AUUUCAGUCAGAGGAUAUUGUUUAUCUCUAUUGCAAGAAGGCUGAUCUUACUACCCACUUAUGAAACAUGAGGAUCACCCAUGU [JR_SSNG1_Sub017] (Eterna round: R96, puzzle: Same State NG 1) | 15.7

[ask] // query apparent KD of MS2 coat protein value for entry UCUGCAAUUAACGCCUACAUGAGGAUCACCCAUGUAUGUAGGCAGGAUAUCGUUUGCUUUGCAAACGAGAAGGGCUGUAGUAGC [salish99_SSNG3_R04_001] (Eterna round: R96, puzzle: Same State NG 3)
[reply] 49.2

---

Recorded apparent KD of MS2 coat protein, one value per entry.
# Test system: MS2 coat protein
# protocolSummary: apparent KD of MS2 coat protein; designed switch direction (-1 OFF switch, 1 ON switch): -1; higher = weaker reporter binding
# conditionParameters: input ligand: microRNA oligo, concentration not stated
Write it as a number; the unit nM goes unstated.

[ask] // query apparent KD of MS2 coat protein value for entry AAGUAUCAUGUAGGAUAUGCUAUCCGAACGGUAGCAGAAGGACAUGAGGAUCACCCAUGUUCUCAUCUGUGAGAACAGAUGUCU [Ex NG1 #5] (Eterna round: R96, puzzle: Exclusion NG 1)
[reply] 19.4

[ask] // query apparent KD of MS2 coat protein value for entry GCAGCAUAUGUAGGAUAUCUGCACGAUUAGUGCAGAGAAGGACAUGAGGAUCACCCAUGUAAUUAAGAUCAAUUAUUAAGCUGC [ENG1/4-A1] (Eterna round: R96, puzzle: Exclusion NG 1)
[reply] 15.6

[ask] // query apparent KD of MS2 coat protein value for entry ACGCAUUGCCUUUGGUAGUGCGUAACAUGAGGAUCACCCAUGUAGGAUAUGGUAGGCUUUGCUUACCAGAAGGACAUAAUAAUU [JL ENG3 1.01] (Eterna round: R96, puzzle: Exclusion NG 3)
[reply] 21.7

[ask] // query apparent KD of MS2 coat protein value for entry AAUGAUUGACGAGGAUAUUGUGGUAAAACACGACGAGAAGGCGUAUGUCACAUGAGGAUCACCCAUGUGAGCUUUGUGGAUAUA [Ex NG1 #71] (Eterna round: R96, puzzle: Exclusion NG 1)
[reply] 23.4

[ask] // query apparent KD of MS2 coat protein value for entry GUCGUGCGGCUUUGCUGUACGAGUACAUGAGGAUCACCCAUGUAGGAUAUGGUUCGUUUUGCGUGCUAGAAGGGCGUGCGUUUU [Excl-NG3-LRO16] (Eterna round: R96, puzzle: Exclusion NG 3)
[reply] 17.3

[ask] // query apparent KD of MS2 coat protein value for entry AUCGUGCAGCUUUGCUGUACGAGUACAUGAGGAUCACCCAUGUAGGAUAUGGUACGCUUUGCGUGCUAGAAGGAUAUGUGUAGG [JL EXNG3 1.36] (Eterna round: R96, puzzle: Exclusion NG 3)
[reply] 30.7

[ask] // query apparent KD of MS2 coat protein value for entry UUCCUCAUAACAUGAGGAUCACCCAUGUAUUAAUAGAUAACUGAGGAUAUACUAAUAAUGUUUAUGUAGAAGGCAGAUACAGAU [JR_ExcNG3_Sub014] (Eterna round: R96, puzzle: Exclusion NG 3)
[reply] 40

[ask] // query apparent KD of MS2 coat protein value for entry UGACGCACGCGAGGAUAUUCCCACGAAACAAACAACGAAGGGUACAUGAGGAUCACCCAUGUGGCGAAGAAGGCGCGCGUCCGG [Eternabot solution 1] (Eterna round: R96, puzzle: Exclusion NG 2)
[reply] 503

[ask] // query apparent KD of MS2 coat protein value for entry AGCGCCAUCGUGAGAUGGCGUAUUACAUGAGGAUCACCCAUGUAGGAUAUCGAUUGCUUUGCAGUCGAGAAGGACAUGUUCUUC [JL ENG3 3.80 Mod C] (Eterna round: R96, puzzle: Exclusion NG 3)
[reply] 16
